B1: Hairpin Ribozyme (parent)
chain: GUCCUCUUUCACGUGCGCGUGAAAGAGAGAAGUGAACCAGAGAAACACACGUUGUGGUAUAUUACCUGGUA

# Variants of: B1
# protocol_details: self-cleavage, relative activity (ratio to wild type); higher = more cleavage; co-transcriptional
quantity: self-cleavage

Worked set:
> print(dat)
   variant.string       quantity  value.observed
1       G17A A35U  self-cleavage           0.778
2        C6G G34U  self-cleavage           0.982
3        U7C C50A  self-cleavage           0.209
4       U14A U20C  self-cleavage               1
5       A28U G68U  self-cleavage           0.272

// fetch self-cleavage given entry A31U A35U
0.162

Tell me self-cleavage reported for U5A A64U
0.133

Give the measured self-cleavage for C6A U55A
0.202

Recall and state the measured self-cleavage for G1C G29U .
0.129

For the variant A28G U52G , give its measured self-cleavage value.
0.948

Read off the recorded self-cleavage for C6U G69A
0.379

Output self-cleavage of G15U A71U
0.923

Specify reported self-cleavage for the variant shown: U7A C16G
0.779

# return recorded self-cleavage for input G21U C50G
0.328

Provide only the value of recorded self-cleavage for G25C A41C
0.622

Find the measured self-cleavage of C38A G56C and report it.
0.136
